Biological target: T1, FcRn-p3 fusion protein (human, UniProt P55899 24-297; P61769 21-119)
T1 construct: baculovirus expressed; coated on ELISA wells; not shown: amino terminal part of bacteriophage p3 protein and CVDE protein
T1 sequence (P55899 24-297, chain 1 of 2): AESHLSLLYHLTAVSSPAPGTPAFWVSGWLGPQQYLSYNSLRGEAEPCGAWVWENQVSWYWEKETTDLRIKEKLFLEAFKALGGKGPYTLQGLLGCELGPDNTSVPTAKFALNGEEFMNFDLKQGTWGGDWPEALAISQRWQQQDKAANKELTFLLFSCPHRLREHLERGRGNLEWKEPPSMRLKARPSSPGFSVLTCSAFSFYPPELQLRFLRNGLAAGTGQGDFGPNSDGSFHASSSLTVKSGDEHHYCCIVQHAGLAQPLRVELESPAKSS
T1 sequence (P61769 21-119, chain 2 of 2): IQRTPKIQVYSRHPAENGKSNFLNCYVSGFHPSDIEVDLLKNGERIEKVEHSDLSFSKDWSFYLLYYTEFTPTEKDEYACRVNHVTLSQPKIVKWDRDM
Assay: phage ELISA pH6 (est.)
measurement type: Ratio/FWT (fold)
Give the value in fold but do not write fold after it.

Check out these entries, answers already filled in.
{"binder": "T5A_44 (other, EU numbering) CPPCPAPELLGGPSVLLFPPKPKDTLMISRTPEVTCVVEDVSHEDPEVKFNWYVDGVEVHNAKTKPREEQYNSTYRVVSVLPVLHQDWLNGKEYKCKVSNKALPAPIEKTISKAKGQPREPQVYTLPPSRDELTKNQVSLTCLVKGFYPSDITVEWESNGQPENNYKTTPPMLDSDGSFFLYSKLTVDKSRWQQGNVFSCSVMHEALHNHYTQKSLSLSPGK", "endpoint unit": "fold", "Ratio/FWT": 3.8}
{"binder": "C4A_29 (other, EU numbering) CPPCPAPELLGGPSVFLFPPKPKDTLMISRTPEVTCVVVDVSHEDPEVKFNWYVDGVEVHNAKTKPREEQYNSTYRVVSVLPVLHQDWLDGKEYKCKVSNKALPAPIEKTISKAKGQPREPQVYTLPPSRDELTKSRVSLTCLVKGFYPSDIAVEWESNGQPENNYKTTPPVLDSDGSFFLYSKLTVDKSRWQQGNVFSCSVMHEALHYHYTQKSLSLSPGK", "endpoint unit": "fold", "Ratio/FWT": 12}

Now let's try a different one.
q: Quickly give me recorded Ratio/FWT for C4A_01 (other, EU numbering) CPPCPAPELLGGPSVFLFPPKPKDTLMISRTPEVTCVVVDVSHEDPEVKFNWYVDGVEVHNAKTKPREEQYNSTYRVVSVLTVLHQDWLDGKEYKCKVSNKALPAPIEKTISKAKGQPREPQVYTLPPSRDELTKNRVSLTCLVKGFYPSDIAVEWESNGQPEKNYKTTPPVLDSDGSFFLYSKLTVDKSRWQQGNVFSCSVMHEALHYHYTQKSLSLSPGK
a: 7.5
